- test-target: rat PGT (Rattus norvegicus (Rat), UniProt Q00910)
- assay-summary: [3H]PGE2 uptake inhibition in MDCK cells stably transfected with rat PGT (percent inhibition and IC50)
- Type: cell-based
- conditions-used: 10 μM compound; inhibition of [3H]PGE2 uptake
quantity: Inh (% of Ctl) 10 μM

Fill in the blank: the reported Inh (% of Ctl) 10 μM of O=C(NCCOCCOCCNc1nc(Nc2ccccc2)nc(Nc2ccc3cn[nH]c3c2)n1)c1ccccc1 [compound 53] is ____.
86.4 % of Ctl

Fill in the blank: the reported Inh (% of Ctl) 10 μM of O=C(NCCOCCOCCNc1nc(Nc2ccccc2)nc(Nc2ccc(O)cc2)n1)c1cc(F)cc(F)c1 [compound 35] is ____.
75.6 % of Ctl
